All values here come from ChEMBL document CHEMBL1128892.

# ASSAY_TARGET: Alpha-2A adrenergic receptor (Homo sapiens, UniProt P08913)
# Sequence (P08913 whole entry): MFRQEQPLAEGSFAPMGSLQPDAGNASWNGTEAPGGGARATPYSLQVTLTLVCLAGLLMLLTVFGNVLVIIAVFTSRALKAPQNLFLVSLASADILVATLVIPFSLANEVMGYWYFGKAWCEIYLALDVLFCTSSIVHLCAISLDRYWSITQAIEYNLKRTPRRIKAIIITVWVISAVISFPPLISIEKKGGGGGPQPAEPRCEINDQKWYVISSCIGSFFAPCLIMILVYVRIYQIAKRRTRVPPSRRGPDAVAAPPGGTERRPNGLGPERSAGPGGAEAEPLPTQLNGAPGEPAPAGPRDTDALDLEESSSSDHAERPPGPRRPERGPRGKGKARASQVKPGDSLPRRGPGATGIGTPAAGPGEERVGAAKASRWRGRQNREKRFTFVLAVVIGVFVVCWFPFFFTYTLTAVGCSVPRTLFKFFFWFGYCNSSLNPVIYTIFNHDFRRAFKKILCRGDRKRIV
pKi: −log10 of the molar value.
Could you label it MET if measured pKi is 7 or higher, and NOT MET otherwise?

Item "c1cnc2cc(NC3=NCCN3)ccc2n1" with pKi of 7 or above? NOT MET

Answer whether pKi of CC1CN=C(Nc2ccc3nccnc3c2Br)N1 (stereo not given) is greater than or equal to 7. NOT MET

Is pKi at least 7? Consider "Cc1c(NC2=NCCN2)ccc2nccnc12" MET

Does "Ic1c(NC2=NCCN2)ccc2nccnc12" have a reported pKi of at least 7? MET

Given the entry "Clc1c(NC2=NCCN2)ccc2nccnc12" , answer whether its pKi meets or surpasses 7. MET

Exam item: decide whether the reported pKi for "Brc1c(NC2=NCCO2)ccc2nccnc12" is at least 7. NOT MET

Form field: pKi at least 7? Entry: "Brc1c(NC2=NCCS2)ccc2nccnc12" NOT MET

Check this compound for pKi at or above 7: "Brc1c(NC2=N[C@@H]3CCCC[C@@H]3N2)ccc2nccnc12" NOT MET

hey, is pKi for this one >= 7? "Brc1c(NC2=NCCN2)ccc2c1NCCN2" MET
